Experiment: Anticancer activity against human EC109 cells assessed as inhibition of proliferation after 72 hrs by MTT assay
Type: functional, cell-based
Details: ECa-109, 72 h

- chem smiles: "CC(C)c1ccc(Nc2nc(SCc3cn(CC(=O)NC(=O)Nc4ccccn4)nn3)nc(-c3ccc(Br)cc3)c2C#N)cc1"
  IC50: "> 64 µM"
- chem smiles: "COc1cc(-c2nc(SCc3cn(CC(=O)NC(=O)Nc4ccccn4)nn3)nc(Nc3ccc(C(C)C)cc3)c2C#N)cc(OC)c1OC"
  IC50: "> 64 µM"
- chem smiles: "COc1ccc(Nc2nc(SCc3cn(CC(=O)NC(=O)Nc4ccccn4)nn3)nc(-c3ccc(C)cc3)c2C#N)cc1"
  IC50: "5.87 µM"
- chem smiles: "COc1ccccc1Nc1nc(SCc2cn(CC(=O)NC(=O)Nc3ccccn3)nn2)nc(-c2ccc(C(C)C)cc2)c1C#N"
  IC50: "8.96 µM"
- chem smiles: "COc1cc(-c2nc(SCc3cn(CC(=O)NC(=O)Nc4ccccn4)nn3)nc(Nc3cccc(C(F)(F)F)c3)c2C#N)cc(OC)c1OC"
  IC50: "> 64 µM"
- chem smiles: "CC(C)c1ccc(Nc2nc(SCc3cn(CC(=O)NC(=O)Nc4ccccn4)nn3)nc(-c3ccc(Cl)cc3)c2C#N)cc1"
  IC50: "> 64 µM"
- chem smiles: "COc1cc(-c2nc(SCc3cn(CC(=O)NC(=O)Nc4ccccn4)nn3)nc(Nc3ccc(Cl)cc3)c2C#N)cc(OC)c1OC"
  IC50: "> 64 µM"

====

Test: Anticancer activity against human EC109 cells assessed as inhibition of proliferation after 72 hrs by MTT assay
Format: functional, cell-based
Conditions: ECa-109, 72 h
pIC50: −log10 of the molar value.

- chem smiles: "CC(C)c1ccc(Nc2nc(SCc3cn(CC(=O)NC(=O)Nc4ccccn4)nn3)nc(-c3ccc(C(C)C)cc3)c2C#N)cc1"
  pIC50: 5.60
- chem smiles: "CC(C)c1ccc(-c2nc(SCc3cn(CC(=O)NC(=O)Nc4ccccn4)nn3)nc(Nc3ccc(Cl)cc3)c2C#N)cc1"
  pIC50: 4.95
- chem smiles: "Cc1ccc(Nc2nc(SCc3cn(CC(=O)NC(=O)Nc4ccccn4)nn3)nc(-c3ccccc3)c2C#N)cc1"
  pIC50: 4.61

====

Test: Cytotoxicity against human GES-1 cells assessed as inhibition of proliferation after 72 hrs by MTT assay
Type: cell-based
Details: GES1, 72 h
Listed below: IC50 values for each entry.
measurement name: IC50

- chem smiles: "COc1cc(-c2nc(SCc3cn(CC(=O)NC(=O)Nc4ccccn4)nn3)nc(Nc3ccc(C)cc3)c2C#N)cc(OC)c1OC"
  measurement name: "IC50"
  observed result: "> 64 µM"
- chem smiles: "COc1ccccc1Nc1nc(SCc2cn(CC(=O)NC(=O)Nc3ccccn3)nn2)nc(-c2ccc(C)cc2)c1C#N"
  measurement name: "IC50"
  observed result: "> 64 µM"
- chem smiles: "CC(C)c1ccc(Nc2nc(SCc3cn(CC(=O)NC(=O)Nc4ccccn4)nn3)nc(-c3ccc(Br)cc3)c2C#N)cc1"
  measurement name: "IC50"
  observed result: "> 64 µM"
- chem smiles: "N#Cc1c(Nc2cccc(C(F)(F)F)c2)nc(SCc2cn(CC(=O)NC(=O)Nc3ccccn3)nn2)nc1-c1ccc(Br)cc1"
  measurement name: "IC50"
  observed result: "38.7 µM"
